Test system: MS2 coat protein
Experiment: apparent KD of MS2 coat protein; designed switch direction (-1 OFF switch, 1 ON switch): -1; higher = weaker reporter binding
Conditions: input ligand: none
Metric name: apparent KD of MS2 coat protein
Form entry: enter the amount, then its unit.

Form: sequence = GAGUGCUGAGGAUAUACAUGAGGAUCACCCAUGUGCUUCAGCUAGGAGACUAGUAUCAGUAGAAGGCAGUACUC [Mod of lroppy 20 - Jieux - Exclusion 3] (Eterna round: R97, puzzle: Exclusion 3) ; apparent KD of MS2 coat protein = 14.7 nM

Form: sequence = UGAUCUAGCGGAGGAUAUACAUGAGGAUCACCCAUGUAUAGGCCAUGUGGUGACACGUGGAACAUGUAGAAGGCCGCUAGAUCU [JL ENG2 3.82] (Eterna round: R96, puzzle: Exclusion NG 2) ; apparent KD of MS2 coat protein = 77.6 nM

Form: sequence = UUCCUACAUGAGGAUCACCCAUGUCAGGAUAUAUAAAACGCUCAGAUAAAAGAGCAAGAUAGAAGGGAUUGGGA [Aquis] (Eterna round: R97, puzzle: Exclusion 1) ; apparent KD of MS2 coat protein = 15.1 nM

According to the records, this sequence CUAAUACAUCAGGAUAUCUUAGCCUAUAGCAUAAGAGAAGGGAUGACAUGAGGAUCACCCAUGUCAAAGGGUGA [eternacac ex6r4 sub20] (Eterna round: R97, puzzle: Exclusion 6) displays apparent KD of MS2 coat protein of 929 nM

Recorded result, UCACGGGACUGAGGAUAUACAUGAAUUAUUUUUGUAGAAGGCAGAAUGUUAGAUUAUACACUAUACAUGAGGAUCACCCAUGUU [JR_ExcNG1_Sub023] (Eterna round: R96, puzzle: Exclusion NG 1) , apparent KD of MS2 coat protein: 19.7 nM

apparent KD of MS2 coat protein in this record for CUUGUAUAUCAGGAUAUGAUUUUAUAUAUUGGAUCAGAAGGGAUAACAUGAGGAUCACCCAUGUUGUGGAGUGA [JR_Ex6_Sub038] (Eterna round: R97, puzzle: Exclusion 6) : 204 nM

Per the record, ACACAGCGAGGAUAUACAUGAGGAUCACCCAUGUGGUGGCAGUUACGGUAGGACUAGUGUAGAAGGUGCCGUGG [EX3 #28] (Eterna round: R97, puzzle: Exclusion 3) has apparent KD of MS2 coat protein of 588 nM

Looking up UGCAGACGAGGAUAUAGAUUUAGAUACAUGAGGAUCACCCAUGUAUACAUGUAUUUAGAUUUAGAAGGCGUCUGCA [E5/14-A2] (Eterna round: R97, puzzle: Exclusion 5) , I see its apparent KD of MS2 coat protein listed as 886 nM

Consider AAGUUCAGAGGAUAUGCCCAGCUCGACAUGAGGAUCACCCAUGUAUCCACAGAACGUACGGCAGAAGGCUGCAAUA [Eternabot (Original) Solution 9] (Eterna round: R97, puzzle: Exclusion 5) . Its measured apparent KD of MS2 coat protein is 86 nM

Consider CGAGCUUUUUGCUCGUCUUACAUGAGGAUCACCCAUGUCAAACAAACAAACAAACGAAAGUUUGUUUGUUUGUUUGA [Mod of sellena 2] (Eterna round: R97, puzzle: Sensor, turn-off variant 1) . Its measured apparent KD of MS2 coat protein is 30 nM

What the record says about UUCGGCGGAGGAUAUACAUAUUUUUGUUGAAUCGGCGGAAAACAUGAGGAUCACCCAUGUAGAAGGUUGUUGAA [-16.3, -13.4 kcal, A 30%] (Eterna round: R97, puzzle: Exclusion 2) : apparent KD of MS2 coat protein is 32.3 nM
